Source listed as patent US20180036405A1.

target: T1, human monomeric EGFR (EGFR.mmh) (human, UniProt P00533 25-647); test: SPR 37C, mAb captured by anti-human Fc, EGFR.mmh analyte
T1 construct: Soluble monomeric EGFR construct
measured-quantity: Kd (nM)
State the answer as a number, implicitly in nM.

>  <binder>
H1H159P (antibody, human IgG1, V domains shown, Human IgG1 Fc (H1H)) VH: EVQLVESGGGLVQPGGSLRLSCAASRFTFTNYWMSWVRQAPGKGLEWVAKIKQDGSEKYYLDSVKDRFTISRDNAKNSLYLQMNSLRAEDTAVYYCASSSSWYDYYYGMDVWGHGTTVTVSS VL: EIVLTQSPDFQSVTPKEKVTITCRASQSIGTNLHWYQQRPDQSPKLLIKFASQSFSGVPSRFSGSGSGTDFTLTINSLEAEDAATYYCHQTNFLPHTFGGGTKVEIKR

>  <unit-of-measurement>
nM

>  <obs-value>
0.682

$$$$

Turning now to a further record.
q: Entry H1H158P (antibody, human IgG1, V domains shown, Human IgG1 Fc (H1H)) VH: QVQLVESGGGVVQPGGSLRLSCAASGFTFSIYGIHWVRQAPGKGLEWVAVISDDGSNKKYADSVKGRFTISRDNSKNTLYLQMNSLRAEDTAIFYCAKDRITGTHYYGMDVWGQGTTVTVSS VL: DIQMTQSPSSLSASVGDRVSITCRASQDISNYLAWFQQKPGKAPKSLIYAASSLQSGVPSKFSGSGSGIEFTLTISSLQPEDFSTYYCHQYNRFPWTFGQGTKVEIK has what Kd?
a: 5.9
